Every entry's value here was drawn from ChEMBL document CHEMBL3244384.

# System: Mus musculus
# Assay Text: Anti-parkinsonian activity in ip dosed albino CD-1 mouse assessed as inhibition of oxotremorine-induced tremor at 0.25 to 1 time TD50 administered 30 mins prior challenge
# Format: functional, organism-based
Active and inactive are the calls of the source. No cut-off for these calls is given here.
Choose one outcome from this list and give only that: active, inactive

Below are worked cases with known answers.
CC1(C)Oc2ccc(N3C(=O)C[C@H](N)C3=O)cc2O1.Cl | active
Cl.N[C@H]1CC(=O)N(c2ccc3c(c2)OCO3)C1=O | inactive
CC1(C)Oc2ccc(N3C(=O)C[C@@H](N)C3=O)cc2O1.Cl | active

Could you now look at the following molecule, please?
Input: Assay outcome for Cl.N[C@@H]1CC(=O)N(c2ccc3c(c2)OCO3)C1=O : what was it?
Output: inactive
